measured_on: T1, C-reactive protein (human, UniProt P02741 19-224)
T1 construct: C-reactive protein (CRP), cyclic pentamer of five identical, noncovalently connected subunits of 206 amino acids each (printed); PDB 3PVO was used only for docking; also called CRP
T1 sequence (looked up): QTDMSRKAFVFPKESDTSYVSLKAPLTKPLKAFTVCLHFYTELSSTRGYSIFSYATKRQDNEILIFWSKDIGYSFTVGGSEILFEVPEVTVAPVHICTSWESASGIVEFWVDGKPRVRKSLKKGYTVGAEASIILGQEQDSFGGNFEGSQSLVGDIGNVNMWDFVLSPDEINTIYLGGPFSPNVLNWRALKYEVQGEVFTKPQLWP
assay: differential pulse voltammetry (electrochemical); P3 peptide covalently immobilised on TESPSA-silanised ITO, blocked with 1% BSA; 20 uL protein in PBS pH 7.4 for 30 min at room temperature; 1 mM Fc(CH2OH)2 in PBS as redox probe; drop of peak current fitted with the Hill equation, Kd = KA^n
run_conditions: both partners purified
readout: pKd
Reminder that pKd is minus the log10 of a molar concentration.

Please report the recorded pKd for VHWDFRQWWQPS (12-mer identified by phage display against CRP; immobilised on gold plates for PM-IRRAS, whose method is in the Supporting Information; also called peptide P3; source: synthetic peptide) [P3 peptide] .
7.46
